- Test system: MDA-MB-435
- procedure.text: NCI tumour cell line growth inhibition, 48 h
# log10 TGI annotations
log10 TGI, µM

compound | log10 TGI
C[C@]12CCc3sc(Nc4ccc(O)cc4)nc3C1=CC[C@@H]1[C@@H]2CC[C@]2(C)C(=O)CC[C@@H]12 | 0.73
COc1cc2c3c(n(C)c(=O)c2cc1OC)-c1cc2c(cc1/C3=C\C(N)CN)OCO2 (configuration not stated) | 1.24
S=C(Nc1cc(Cl)c(Cl)cc1Cl)SCc1ccccc1 | 1.59
COC1=CC(=O)c2c(O)c3c(c(O)c2C1=O)C=C(C)OC3O (configuration not stated) | 0.40
COC(=O)C1=C(C)NC(C)=C(C(=O)OC)C1c1cccc(NO)c1 | 1.49

So what's the measured log10 TGI for this one? "C/C=C/[C@@H]1OC(=O)C2=C[C@@H](O)[C@@H](/C=C/C)O[C@H]21"
1.41

Would you kindly share the measured log10 TGI for Cc1ccc(S(=O)(=O)n2c3c(c4ccccc42)CCN2CCC(Br)C[C@@H]32)cc1 (some centres not stated) ?
1.16

Quick one: log10 TGI for "CCCCOCCOC1=CC(=O)c2c(O)ccc(O)c2C1=O" ?
-0.48

# query: log10 TGI of entry CCOc1ccc(NCC2CC/C(=C\c3ccc(O)cc3)C2=O)cc1 (configuration not stated)
1.55

# lookup: log10 TGI of "Nc1ccc(-c2ccc(N)cc2I)c(I)c1"
1.21

Which log10 TGI is listed for "Nc1n[nH]c2cccc(C#Cc3cccc(C(=O)Nc4cc(CN5CCOCC5)cc(C(F)(F)F)c4)c3)c12" ?
1.18

I would be grateful if you could share the reported log10 TGI for "c1ccc2cc(CNCCOCCOCCNCc3ccc4ccccc4c3)ccc2c1" .
0.58

###

Below, each of the compounds is paired with its reported log10 of TGI value.
- System: NCI-H226 lung
- procedure.text: NCI tumour cell line growth inhibition, 48 h
Log10 applied to TGI; unit prior to transform: µM.

# example entries with known answers
chemical.string | log10 of TGI
O=C(COc1cccc(/C=C2\COc3ccc(Cl)cc3C2=O)c1)c1ccc(Cl)cc1 | 1.49
Cc1[nH]c2ccccc2c1CCNCc1ccc(/C=C/C(=O)NO)cc1 | -0.76
N=C(N)c1ccc(COc2ccccc2OCc2ccc(C(=N)N)cc2)cc1 | 1.91

May I ask what log10 of TGI has been recorded for "CSC1(SC2=NCCN2)SC2(NCCN2)S1" ?
1.75

Tell me the measured log10 of TGI of "Nc1ccc(-c2ccc(N)cc2I)c(I)c1" , please.
1.66

Reported log10 of TGI for "CC(C)/C(Cl)=N\OC(=O)Nc1ccc(F)cc1F" : what is it?
1.47

###

- Tested on: UACC-62 melanoma
- procedure.text: NCI tumour cell line growth inhibition, 48 h
Each record here notes measured TGI.

Consider the worked cases shown below.
chemical.string | result
CS(=O)(=O)Nc1ccc(N=Cc2c(O)[nH]c3ccccc23)cc1 | > 25 µM
CC(C)(C)OC(=O)N(CCNS(=O)(=O)c1cccc2cnccc12)CCC(=O)ON1C(=O)CCC1=O | > 100 µM
O=c1c2cn[nH]c2nc2scc(-c3ccc(Cl)cc3)n12 | > 100 µM
COCCNc1cc(NC(=O)N2CCCc3cc(CN4CCN(C)CC4=O)c(C=O)nc32)ncc1C#N | > 50 µM

If you can, please state the reported TGI value of "Clc1nc(NCCc2ccccc2)c2ncn(-c3ccccc3)c2n1" .
56.7 µM

Data request, read-out TGI, for "CC(C)CCc1n[nH]c(=O)n1/N=C\c1ccccc1"
> 100 µM

I have this compound here, "CC(=O)O[C@H]1CCn2c3c(c(C)c21)C(=O)C(N1CC1)=C(C)C3=O" , and I need its recorded TGI.
> 10 µM

###

- Test system: RXF 393 renal
- procedure.text: NCI tumour cell line growth inhibition, 48 h
Where a SMILES comes first, the peptide text is derived from it. The star is where a group is joined. Boc = CC(C)(C)OC(=O)*; OBn = c1ccc(CO*)cc1
measured.metric: TGI

molecule | result
CC(NC(=O)C(Cc1ccccc1)NC(=O)C(Cc1ccccc1)NC(=O)OC(C)(C)C)C(=O)OCc1ccccc1 (stereo not drawn) (Boc-Phe-Phe-Ala-OBn; configuration not given here) | > 100 µM

If you can, please state the reported TGI value of CC1OC1C(=O)C1(O)C(C)C(O)C23OC2(C(O)c2c(O)cccc2C3=O)C1O (centres undefined) .
0.599 µM

Fill blank: measured TGI of the molecule COc1cccc(C2SCC(=O)N2c2ccc(-n3c(-c4ccccc4)nc4ccccc4c3=O)cc2)c1OC (centres undefined) is ____.
> 100 µM

Using the record for "Cn1cnc(N2CCCC2)c(C#N)c1=O" , report its TGI.
> 100 µM

Using the record for O=C1CCC2(c3ccccc3)Nc3ncccc3N12 (centres undefined) , report its TGI.
> 100 µM

###

- Test system: A498 renal
- procedure.text: NCI tumour cell line growth inhibition, 48 h
Measured TGI of individual entries
Give the quantity in µM, number only.

molecule | quantitative.result
COc1cc2c3c(n(C)c(=O)c2cc1OC)-c1cc2c(cc1/C3=C\C(N)CN)OCO2 (centres undefined) | 9.77
c1ccc2cc(CNCCOCCOCCNCc3ccc4ccccc4c3)ccc2c1 | 3.73
Cc1ccc(S(=O)(=O)NNC2(NS(=O)(=O)c3ccc(Cl)cc3)C(Cl)=C(Cl)C(=O)c3ccccc32)cc1 (centres undefined) | 36.7
COC(=O)C1=C(OC(=O)c2ccc(Cl)cc2)C(C(=O)OC)[C@@]2(O)[C@@H](C(=O)OC)C(c3ccccc3Cl)C[C@@H]1[C@@H]2C(=O)OC (some centres undefined) | 13.2
CCN(CC)c1ccc(C(=N)c2ccc(N(C)C)cc2)cc1 | 6.32
CC1OC1C(=O)C1(O)C(C)C(O)C23OC2(C(O)c2c(O)cccc2C3=O)C1O (centres undefined) | 1.2

Would you mind telling me what TGI value was observed for CC(C)C/C=C/C1=NN(c2cccc(S(=O)(=O)O)c2)C2(C1)SCC(=O)N2c1nc2ccccc2s1 (centres undefined) ?
88.2

Field request: TGI | item: "O=C(OCCBr)c1ccc(Cl)c([N+](=O)[O-])c1"
42.4

Given the entry "COc1ccc(-c2nn(-c3cccc(Cl)c3)cc2-c2cc(-c3ccccc3)nc(N)n2)cc1" , report its measured TGI.
11.9

// query TGI value for entry CC1CCC(C(C)C)C(O[C@@H]2OC(=O)C[C@@H]2Sc2ccccc2)C1 (some centres undefined)
74.7

Query: TGI; subject: "CC(C)/C(Cl)=N\OC(=O)Nc1ccc(F)cc1F"
31.1

Data request, read-out TGI, for "C/C(=N\NC(=S)Nc1ccc(C)cc1)c1nc2ncccc2[nH]1"
23.4

Fill blank: measured TGI of the molecule "C=C1C(=O)O[C@H]2[C@H]3O[C@@H](C[C@@H]12)[C@@]1(C)CC[C@H](O1)C(C)=CCC[C@H]3C" is ____.
3.15

Please report the recorded TGI for CCCCNC(=O)NS(=O)(=O)c1ccc(N2N=C(c3cc(C)ccc3C)CC2c2cc(OC)c(OC)c(OC)c2)cc1 (centres undefined) .
6.01

Please report the recorded TGI for "CCOC(=O)C1=C(Nc2cccc3ccccc23)OC/C1=N\NC(=O)c1ccccc1O" .
70.6

Quick check: TGI of "Cc1cc2nc(-c3c(F)cccc3F)n(Cc3c(F)cccc3F)c2cc1C" ?
39.9

Fill blank: measured TGI of the molecule "O=C1C(=C(I)I)c2ccccc2-c2ccccc21" is ____.
30.6

###

- Tested on: T-47D breast
- procedure.text: NCI tumour cell line growth inhibition, 48 h
measured.metric: TGI (µM)
Just the number in µM, nothing appended.

The examples below pair each entry with its known result.
molecule | measured.metric | quantitative.result
COc1ccc(C(=O)/C=C/c2cccnc2)cc1OC | TGI | 22
O=C(/C=C/c1ccc(Cl)cc1)c1cccs1 | TGI | 45.1
Nc1n[nH]c2ccc([C@@H]3Nc4ccc5[nH]ncc5c4[C@H]4C5C=CC(C5)[C@@H]34)cc12 (some centres undefined) | TGI | 77.1

Given the molecule "O=C(N/N=C/c1cc([N+](=O)[O-])ccc1O)c1cccc2ccccc12" , what is its reported TGI?
23.3

###

- Test system: SK-MEL-5 melanoma
- procedure.text: NCI tumour cell line growth inhibition, 48 h
measured.metric: GI50

Examples from the recorded data:
compound | result
CC(=O)O[C@H]1CC[C@@]2(C)[C@@H](CC[C@@H]3[C@@H]2CC[C@]2(C)C=C(C=O)C[C@@H]32)C1 | 3.56 µM
Nc1cc(N)c2nc(-c3ccccc3)c(NCc3ccc(F)cc3)nc2c1 | 1.88 µM
CCNCCNc1cc(C2CCCCC2)c(C#N)c2nc3ccccc3n12 | 1.71 µM
O=C(CN1CCN(c2ccccc2)CC1)N1CCN(c2nnc(-c3ccc(Cl)cc3)c(-c3ccc(Cl)cc3)n2)CC1 | 6.03 µM
COc1cc2c3c(n(C)c(=O)c2cc1OC)-c1cc2c(cc1/C3=C\C(N)CN)OCO2 (centres undefined) | 2.8 µM
Nc1nc(N)c(N=O)c(OCC2CCCCC2)n1 | 13.7 µM

State the recorded GI50 for this entry: "Cc1c(Cl)cccc1NC1=C(Cl)C(=O)N(Cc2ccccc2)C1=O"
11.7 µM

What value of GI50 has been recorded for this entry: "N=C(N)c1ccc(COc2ccccc2OCc2ccc(C(=N)N)cc2)cc1"
17.1 µM
